# Measured On: T1, canine NGF (canine, UniProt Q29074 110-229 (pig entry), limits assumed)
# T1 construct: The protein was secreted from CHO cells and purified; also called cNGF; canine β-NGF
# T1 chain: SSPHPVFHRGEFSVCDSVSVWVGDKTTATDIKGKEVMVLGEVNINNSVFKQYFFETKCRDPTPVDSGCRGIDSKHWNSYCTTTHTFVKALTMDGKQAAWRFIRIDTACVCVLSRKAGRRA
# Method Summary: SPR (Biacore T200), 100 nM mAb on NGF chip, similarity to parent mAb
A collection of binders and their measured Percent Similarity Score (KD on cN)

>  <Binder>
can9L12VH_F27A (antibody, V domains shown) VH: EVQLVESGGDLVKPGGSLRLSCVASGATFSSHGMHWVRQSPGKGLQWVAVINSGGSSTYYTDAVKGRFTISRDNAKNTVYLQMNSLRAEDTAMYYCAKESVGGWEQLVGPHFDYWGQGTLVIVSS VL: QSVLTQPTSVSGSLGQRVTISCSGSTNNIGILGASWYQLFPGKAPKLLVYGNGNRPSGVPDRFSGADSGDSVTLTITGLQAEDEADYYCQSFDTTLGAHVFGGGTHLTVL

>  <Units Label>
%

>  <Percent Similarity Score (KD on cN)>
100

$$$$
>  <Binder>
can48L2VH_I51A (antibody, V domains shown, CDR scanning mutant of ZTS-842 (48L2)) VH: EVQLVESGGDLVKPGGSLRLSCVASGFTFSTYGINWVRQAPGKGLQWVAYASSGGSSTYYADPVKGRFTISRDDAKNMLYLQMNSLRAEDTAIYYCAGSRYTYAYGGGYEFHFWGQGTLVTVSS VL: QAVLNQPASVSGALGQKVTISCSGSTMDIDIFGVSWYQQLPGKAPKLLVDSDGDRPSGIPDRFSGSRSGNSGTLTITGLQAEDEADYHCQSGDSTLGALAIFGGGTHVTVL

>  <Units Label>
%

>  <Percent Similarity Score (KD on cN)>
24.2

$$$$
>  <Binder>
can9L12VL_O90A (antibody, V domains shown) VH: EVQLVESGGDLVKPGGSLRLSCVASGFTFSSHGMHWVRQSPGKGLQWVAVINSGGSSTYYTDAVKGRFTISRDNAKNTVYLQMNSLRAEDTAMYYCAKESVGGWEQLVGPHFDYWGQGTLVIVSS VL: QSVLTQPTSVSGSLGQRVTISCSGSTNNIGILGASWYQLFPGKAPKLLVYGNGNRPSGVPDRFSGADSGDSVTLTITGLQAEDEADYYCASFDTTLGAHVFGGGTHLTVL

>  <Units Label>
%

>  <Percent Similarity Score (KD on cN)>
79.2

$$$$

Hey, just so you know, these numbers are from patent US20210221899A1.
